system: K-562 leukemia; experiment: NCI-60 one-dose screen, 48 h; conditions: 10 µM unless noted
Compounds without any hit were thinned out: in the full panel of roughly 83,000, 20% have a hit. Calls of active or inactive are those of the source. The calls were made as follows: active = growth percent below 10; inactive = the rest.
Bench note: report the call from active, inactive

Here are 8 molecules together with their reported answers.
{"columns": ["molecule", "label"],
 "data": [
  ["C1=CN2CC(c3ccccc3)=NNC2c2ccccc21 (stereo not given)", "inactive"],
  ["O=CC1(C2(C=O)c3ccccc3-c3ccccc32)c2ccccc2-c2ccccc21", "active"],
  ["CN(C)CCCn1c2c(c3ncccc3c1=O)C(=O)c1ccccc1-2", "inactive"],
  ["C=C(C)[C@@H]1CC[C@]2(C)[C@H](CC=C3[C@@H]4[C@H](C)[C@@H](C)CC[C@]4(CO)CC[C@]32C)[C@@]1(C)CCCN", "active"],
  ["N#Cc1c(-c2ccc(Cl)cc2)nc(SCC(=O)NC2=NN=C(c3ccccc3)CS2)[nH]c1=O", "inactive"],
  ["CN(C)C1CCN(Cc2ccc(NC(=O)c3cncc(C#Cc4cnc(N)c5ncccc45)c3)cc2C(F)(F)F)CC1", "active"],
  ["O=C(/C=C(/C=C/c1cccc2[nH]ccc12)OB(F)F)/C=C/c1cccc2[nH]ccc12", "active"],
  ["C1=C(N2CCCC2)CCC1", "inactive"]
]}

**Query** Could you please tell me the result logged for CN1CCN(Cc2ccc3c(NNC(=O)c4ccccc4)nc4cc(F)ccc4n23)CC1 in this assay?
**Result** inactive

**Query** State the result this test recorded for C=CC(=O)NCc1ccc(Nc2nccc(-c3ccc(N4CCCC4)c(C#N)c3)n2)cc1 .
**Result** inactive

**Query** Name the outcome recorded for COc1ccc(-c2cc(-c3ccc(Cl)cc3)c(C#N)c(=O)n2CCCCC(=O)Nc2ccccc2N)cc1 in the assay.
**Result** inactive

**Query** Record request — test call for COc1ccc(-c2csc(N(C(=O)N3CCN(c4cc5c(cc4F)c(=O)c(C(=O)O)cn5C4CC4)CC3)c3ccccc3)n2)cc1
**Result** inactive

**Query** Please share the test call associated with CCOC(=O)C1=C(NC)OCC1=O .
**Result** inactive

**Query** Recorded call for CCN1CCN(c2cc(C(=O)Nc3nc(-c4cc(OC)c(OC)c(OC)c4)cs3)cc(C(F)(F)F)c2)CC1 ?
**Result** active

**Query** Any idea what this test logged for COC(=O)c1cc(-c2ccc(S(C)(=O)=O)cc2)[nH]c1N/N=C/c1c(Cl)cccc1Cl ?
**Result** active

**Query** Just curious, what result did CSc1nnc(-c2cnn3c2NC(c2ccccc2)C3)n1-c1ccc(C(F)(F)F)cc1 (stereo not given) get here?
**Result** active

**Query** Please let me know the test result on file for O=C(O)c1[nH]c(=O)[nH]c(=O)c1[N+](=O)[O-] .
**Result** inactive

**Query** Record request — test call for CCOC(=O)C(=Cc1cccc(Br)c1)C(=O)OCC
**Result** inactive

**Query** Please let me know the test result on file for O=C(c1ccc(Cl)cc1)N1CCN(c2ccnc3cc(Cl)ccc23)CC1 .
**Result** inactive

**Query** Any idea what this test logged for CCOc1ccc(NC(=O)CSc2oc(-c3ccccc3)nc2S(=O)(=O)c2ccc(F)cc2)cc1 ?
**Result** inactive

Data provenance: PubChem BioAssay (NCI)
